B1: NF2 (merlin) isoform 7, human, full length (507 aa, lacks exons 2-3 = isoform-1 residues 39-121; exon-16 C-terminus), P35240-4 (parent)
chain: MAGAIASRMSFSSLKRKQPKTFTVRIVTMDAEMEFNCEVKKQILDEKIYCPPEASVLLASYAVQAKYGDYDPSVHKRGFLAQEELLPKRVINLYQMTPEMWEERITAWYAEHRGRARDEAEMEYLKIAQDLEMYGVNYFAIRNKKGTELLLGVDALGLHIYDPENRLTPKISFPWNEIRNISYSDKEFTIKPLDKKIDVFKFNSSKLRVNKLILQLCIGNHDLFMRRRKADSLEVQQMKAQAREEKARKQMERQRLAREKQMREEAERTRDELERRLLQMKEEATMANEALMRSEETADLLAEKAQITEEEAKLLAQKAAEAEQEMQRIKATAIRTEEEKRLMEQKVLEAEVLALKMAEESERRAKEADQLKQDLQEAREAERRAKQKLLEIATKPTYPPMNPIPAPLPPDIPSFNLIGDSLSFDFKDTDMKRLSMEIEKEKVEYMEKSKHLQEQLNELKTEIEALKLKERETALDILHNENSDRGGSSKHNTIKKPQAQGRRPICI

Variants of: B1
Protocol details: reverse yeast two-hybrid deep mutational scan (rY2H-seq): NF2 isoform 7 mutant library as bait mated with wild-type prey strains; selection on medium lacking adenine for non-interacting pairs; NextSeq paired-end sequencing; enrichment vs …
Setup conditions: with KDM1A (lysine-specific histone demethylase 1A; the table's label AOF2 is a gene synonym of KDM1A), O60341; yeast diploids after mating (RBait_S3 x RPrey_S3), 30 °C, selection for reporter genes on NB agar; human tyrosine kinase ABL2 co-expressed as the active kinase …; HIGHER = WEAKER BINDING (the opposite of display enrichments): higher = stronger loss of interaction: reverse Y2H selects yeast in which bait and prey do NOT interact (growth without adenine), so a …; hits-only table; scale: rY2H score; numbering: uniprot, sequence starts at 1
Output: class label from enrichment. Mapping: bucket A: < 2; bucket B: ≥ 2 and < 3; bucket C: ≥ 3

Please indicate the class for `R243K` based on its enrichment. bucket A

Please let me know in which category the item `K330A` belongs. bucket C

Using the reported enrichment, which band applies to `M326E` ? bucket A

// return the class label for `L417K` bucket B

GET /class?item= `M96V` bucket A

Using the reported enrichment, which band applies to `E309L` ? bucket A

Hi, small favor: classify `A358L` by its enrichment when you get a moment. bucket C

Looking at `F200S` , which class would you pick? bucket C

Which band does `R166N` fall in? bucket A

Band for the recorded enrichment of `N137R` ? bucket B

Category of `T308I` : bucket B

Could you place `A266K` in its proper category? Many thanks. bucket B

Please let me know in which category the item `M343K` belongs. bucket C

Lab note: sort `I105C` into the matching enrichment band. bucket A

Into which category would you place `G78K` ? bucket C

Which class holds `K318E` ? bucket A

Please indicate the class for `E323L` based on its enrichment. bucket A

Textbook exercise: identify the category of the variant given here, `T429K` , according to its measured value. bucket C

Sort into band: `R166G` bucket A

Categorize the following entry: `D198G` bucket B

Into which category would you place `L375E` ? bucket B

Sort `L151S` into one of the categories. bucket C

Sort `D130A` into one of the categories. bucket A

# classify by enrichment band: `E339K` bucket B

Class label required: `M262D` bucket C

Any idea which band `E265L` is in? bucket C

Which enrichment band matches `M401E` ? bucket A

Just checking, what class would you give `P497L` here? bucket C

Assign a bin to `A331L` bucket C

Sort into band: `L256A` bucket B

Exercise: read the entry `R328L` and state which class it falls under. bucket B

Lab note: sort `Q500K` into the matching enrichment band. bucket A

Exam item: assign `A240S` to the correct category. bucket A

Could you place `A54V` in its proper category? Many thanks. bucket C

Which band does `E349P` fall in? bucket B

Category lookup for the variant `R341A` bucket C

Hi, small favor: classify `M251A` by its enrichment when you get a moment. bucket B
